tested.system: T1, native human ESRRG protein (Estrogen-receptor related receptor gamma) (human, UniProt P62508 229-458, limits assumed)
T1 construct: the screened protein is called 'native human ESRRG protein'; also called ESSRG; ERRγ
T1 sequence (looked up): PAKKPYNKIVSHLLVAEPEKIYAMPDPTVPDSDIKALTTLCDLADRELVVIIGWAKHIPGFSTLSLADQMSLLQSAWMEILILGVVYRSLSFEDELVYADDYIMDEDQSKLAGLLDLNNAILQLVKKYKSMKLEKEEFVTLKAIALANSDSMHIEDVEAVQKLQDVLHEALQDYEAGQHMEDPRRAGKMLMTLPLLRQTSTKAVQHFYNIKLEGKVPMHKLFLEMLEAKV
test.name: peptide microarray, Iteration 2; bound ESRRG detected with fluorescent anti-ESRRG mAb
Where no end group is shown, it is not given here.
observable: Sample B (Probe) Signal

>>> reported("Ac-YHNYLLHP")
"1310 fluorescence intensity units"
>>> reported("Ac-PFKLKQGN")
"6980 fluorescence intensity units"
>>> reported("Ac-NLLLKHPD")
"2300 fluorescence intensity units"
>>> reported("Ac-HYKLKQHE")
"1300 fluorescence intensity units"
>>> reported("Ac-HRSYPRVY")
"2450 fluorescence intensity units"
>>> reported("Ac-NFNYLLPH")
"13800 fluorescence intensity units"
>>> reported("Ac-PWKLKQDP")
"1340 fluorescence intensity units"
>>> reported("Ac-FYNMYLLN")
"1560 fluorescence intensity units"
>>> reported("Ac-IFLLQQDN")
"1010 fluorescence intensity units"
>>> reported("Ac-DINFSLGI")
"4800 fluorescence intensity units"
>>> reported("Ac-HFKLKQGG")
"3110 fluorescence intensity units"
>>> reported("Ac-AFNMYLDE")
"440 fluorescence intensity units"
>>> reported("Ac-WGKLKQGE")
"1230 fluorescence intensity units"
>>> reported("Ac-GKSYPRHR")
"3050 fluorescence intensity units"
>>> reported("Ac-HNNYLLNN")
"964 fluorescence intensity units"
>>> reported("Ac-PDSYPRWG")
"5590 fluorescence intensity units"
>>> reported("Ac-FFKGHFKF")
"5440 fluorescence intensity units"
>>> reported("Ac-LFKLKQDG")
"2780 fluorescence intensity units"
>>> reported("Ac-WANYLLPP")
"2860 fluorescence intensity units"
>>> reported("Ac-ALNFSLNW")
"662 fluorescence intensity units"
>>> reported("Ac-EDSYPRDG")
"5020 fluorescence intensity units"
>>> reported("Ac-PGKGHFPI")
"998 fluorescence intensity units"
>>> reported("Ac-HNSYPRNE")
"802 fluorescence intensity units"
>>> reported("Ac-DNNYLLLL")
"2240 fluorescence intensity units"
>>> reported("Ac-FWNMYLNP")
"775 fluorescence intensity units"
>>> reported("Ac-MYKLKQDN")
"746 fluorescence intensity units"
>>> reported("Ac-WRSYPRRA")
"2610 fluorescence intensity units"
>>> reported("Ac-VLLHYGLY")
"1800 fluorescence intensity units"
>>> reported("Ac-DRSYPRHT")
"271 fluorescence intensity units"
>>> reported("Ac-WNSYPRND")
"2200 fluorescence intensity units"
>>> reported("Ac-LFKLKQND")
"1860 fluorescence intensity units"
>>> reported("Ac-TGKLKQDG")
"2460 fluorescence intensity units"
